// reported pIC50 for each item listed
target: UniProt Q9NR96; experiment: TLR9 inhibition reporter assay (HEK-Blue SEAP reporter, ODN2006 stimulation); settings: HEK-Blue cells overexpressing human TLR9, SEAP reporter, ODN2006 5 nM, 22 hour incubation
The meaning of pIC50 here: minus log10 of the concentration in molar units.

>  <COMPOUND>
CCCN1CCC(c2ccc3[nH]c(-c4cn(C)c(=O)c(-c5cnn(C)c5)c4C)c(C(C)C)c3c2)CC1

>  <TESTED_TARGET>
UniProt Q9NR96

>  <OBSERVED_PROPERTY>
pIC50

>  <VALUE_REPORTED>
5.52

$$$$
>  <COMPOUND>
Cc1cc(-c2[nH]c3ccc(C4CCN(C5CCN(C)C5=O)CC4)cc3c2C(C)C)cn(C)c1=O (stereo not shown)

>  <TESTED_TARGET>
UniProt Q9NR96

>  <OBSERVED_PROPERTY>
pIC50

>  <VALUE_REPORTED>
4.47

$$$$
>  <COMPOUND>
Cc1cc(-c2[nH]c3ccc(C4CCN(CC(=O)N5CC[C@H](O)C5)CC4)cc3c2C(C)C)cn(C)c1=O

>  <TESTED_TARGET>
UniProt Q9NR96

>  <OBSERVED_PROPERTY>
pIC50

>  <VALUE_REPORTED>
5.94

$$$$

Record request: pIC50 value, item CCc1cc(-c2[nH]c3ccc(C4CCNCC4)cc3c2C(C)C)c(C)n(CC)c1=O
6.24

====

Measured pIC50 by item
Target: human TLR9 (Homo sapiens, UniProt Q9NR96)
Construct: host or cells: HEK-Blue cells
Sequence (Q9NR96 26-1032): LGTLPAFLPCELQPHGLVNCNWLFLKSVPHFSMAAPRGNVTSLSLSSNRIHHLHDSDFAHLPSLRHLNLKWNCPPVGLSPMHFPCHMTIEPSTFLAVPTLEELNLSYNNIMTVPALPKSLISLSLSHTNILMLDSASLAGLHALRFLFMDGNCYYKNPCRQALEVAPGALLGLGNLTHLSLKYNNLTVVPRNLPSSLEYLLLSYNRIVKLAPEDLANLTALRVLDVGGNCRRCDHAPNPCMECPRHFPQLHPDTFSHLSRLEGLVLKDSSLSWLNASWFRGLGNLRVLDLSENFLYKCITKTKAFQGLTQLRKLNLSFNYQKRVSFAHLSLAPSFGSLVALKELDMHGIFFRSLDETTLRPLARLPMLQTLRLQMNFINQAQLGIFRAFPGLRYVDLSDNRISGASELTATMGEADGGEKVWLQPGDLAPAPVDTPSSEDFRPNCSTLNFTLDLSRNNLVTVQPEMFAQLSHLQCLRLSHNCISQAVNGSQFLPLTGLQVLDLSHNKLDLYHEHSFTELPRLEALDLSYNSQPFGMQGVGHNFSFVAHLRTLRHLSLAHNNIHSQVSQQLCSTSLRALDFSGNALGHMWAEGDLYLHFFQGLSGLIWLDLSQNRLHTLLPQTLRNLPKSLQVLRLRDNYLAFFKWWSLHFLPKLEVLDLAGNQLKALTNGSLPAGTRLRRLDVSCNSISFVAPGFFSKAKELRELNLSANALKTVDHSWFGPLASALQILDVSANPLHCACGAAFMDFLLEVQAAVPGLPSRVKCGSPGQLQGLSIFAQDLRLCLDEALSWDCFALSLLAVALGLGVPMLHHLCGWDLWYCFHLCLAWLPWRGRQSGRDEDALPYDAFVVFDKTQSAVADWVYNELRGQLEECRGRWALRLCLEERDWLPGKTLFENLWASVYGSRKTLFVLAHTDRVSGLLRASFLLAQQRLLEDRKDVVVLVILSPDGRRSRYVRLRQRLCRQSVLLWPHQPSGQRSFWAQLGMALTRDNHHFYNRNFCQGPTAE
Test: TLR9 inhibition reporter assay (HEK-Blue SEAP reporter, ODN2006 stimulation)
Assay type: cell-based
Conditions: HEK-Blue cells overexpressing human TLR9, SEAP reporter, ODN2006 5 nM, 22 hour incubation
Units for pIC50: none; it is -log10 of a concentration expressed in mol/L.

>  <STRUCTURE_SMILES>
Cc1cc(-c2[nH]c3ccc(C4CCN(C(=O)CN(C)C)CC4)cc3c2C(C)C)cn(CC(C)C)c1=O

>  <OBSERVED_PROPERTY>
pIC50

>  <VALUE_REPORTED>
5.47

$$$$
>  <STRUCTURE_SMILES>
Cc1cc(-c2[nH]c3ccc(C4CCN(CCCC(F)(F)F)CC4)cc3c2C(C)C)cn(C)c1=O

>  <OBSERVED_PROPERTY>
pIC50

>  <VALUE_REPORTED>
5.42

$$$$
>  <STRUCTURE_SMILES>
Cc1c(-c2[nH]c3ccc(C4CCN(CC#N)CC4)cc3c2C(C)C)cn(C)c(=O)c1Cl

>  <OBSERVED_PROPERTY>
pIC50

>  <VALUE_REPORTED>
5.54

$$$$
>  <STRUCTURE_SMILES>
CCNC(=O)CN1CCC(c2ccc3[nH]c(-c4cn(C)c(=O)c(Cl)c4C)c(C(C)C)c3c2)CC1

>  <OBSERVED_PROPERTY>
pIC50

>  <VALUE_REPORTED>
4.67

$$$$
>  <STRUCTURE_SMILES>
COCCOCCOCCN1CCC(c2ccc3[nH]c(-c4cn(C)c(=O)c(Cl)c4C)c(C(C)C)c3c2)CC1

>  <OBSERVED_PROPERTY>
pIC50

>  <VALUE_REPORTED>
5.06

$$$$

Find the recorded pIC50 belonging to Cc1cc(-c2[nH]c3ccc(C4CCN(C5COC5)CC4)cc3c2C(C)C)cn(C)c1=O and report it.
4.60

Try this compound next: Cc1cc(-c2[nH]c3ccc(C4CCN(Cc5ccnn5C)CC4)cc3c2C(C)C)cn(C)c1=O
5.08

====

Recorded IC50 for the following compounds
molecular target: human TLR9 (Homo sapiens, UniProt Q9NR96); test: TLR9 inhibition reporter assay (HEK-Blue SEAP reporter, ODN2006 stimulation); conditions: HEK-Blue cells overexpressing human TLR9, SEAP reporter, ODN2006 5 nM, 22 hour incubation
Answer with a number only, understood to be in µM.

Using the record for COc1c(C)c(-c2[nH]c3ccc(C4CCN(C5COC5)CC4)cc3c2C(C)C)cn(C)c1=O , report its IC50.
17.2

Let us now turn to Cc1cc(-c2[nH]c3ccc(C4CCN(CC5=NN=CC5)CC4)cc3c2C(C)C)cn(C)c1=O
3.74

// same read-out, input: Cc1cc(-c2[nH]c3ccc(C4CCN([C@H]5CCOC[C@@H]5O)CC4)cc3c2C(C)C)cn(C)c1=O
8.04

Again, but for CNC(=O)CN1CCC(c2ccc3[nH]c(-c4cc(C)c(=O)n(Cc5ccccc5)c4)c(C(C)C)c3c2)CC1
4.12

Next compound up: COCCn1cc(-c2[nH]c3ccc(C4CCN(CC(=O)N(C)C)CC4)cc3c2C(C)C)cc(C)c1=O
16.6

// next record Cc1cc(-c2[nH]c3ccc(C4CCN(CC(=O)N(C)C)CC4)cc3c2C(C)C)c(C)n(C)c1=O
7.61

Same for Cc1cc(-c2[nH]c3ccc(C4CCN(CC(C)(C)O)CC4)cc3c2C(C)C)cn(C)c1=O
5.54

Same question, CCc1cc(-c2[nH]c3ccc(C4CCNCC4)cc3c2C(C)C)c(C)n(C)c1=O this time
1.37

What about this compound? CC(C)c1c(-c2cc(-c3ccccc3)c(=O)n(C)c2)[nH]c2ccc(C3CCN(CC(=O)N(C)C)CC3)cc12
2.08

Next compound: CC(C)c1c(-c2ccc(=O)n(C)c2)[nH]c2ccc(C3CCN(C4COC4)CC3)cc12 [Example 175]
15.5

Param item: CCCN1CCC(c2ccc3[nH]c(-c4cc(-c5cccc(OC)c5)c(=O)n(C)c4)c(C(C)C)c3c2)CC1
1.21

Repeat with COc1cc(-c2[nH]c3ccc(C4CCN(C5CCOCC5)CC4)cc3c2C(C)C)cn(C)c1=O
0.959

Cool, now Cc1cc(-c2[nH]c3ccc(C4CCNCC4)cc3c2C(C)C)cn(CC(F)F)c1=O
4.45

Also check Cc1c(-c2[nH]c3ccc(C4CCN(CC(O)CO)CC4)cc3c2C(C)C)cn(C)c(=O)c1Cl (stereo not drawn)
1.24

====

biological target: human TLR9 (Homo sapiens); assay: TLR9 inhibition reporter assay (HEK-Blue SEAP reporter, ODN2006 stimulation); conditions: HEK-Blue cells overexpressing human TLR9, SEAP reporter, ODN2006 5 nM, 22 hour incubation
pIC50: −log10 of the molar value.
Classes (pIC50): low: < 5; mid: ≥ 5 and < 6; high: ≥ 6

Take a look at these entries with their results.
>  <MOLECULE>
Cc1c(-c2[nH]c3ccc(C4CCN(CC(C)(C)O)CC4)cc3c2C(C)C)cc(C#N)c(=O)n1C [Example 321]

>  <LABEL_VALUE>
mid

$$$$
>  <MOLECULE>
Cc1nc(-c2[nH]c3ccc(C4CCN(C5CCOCC5)CC4)cc3c2C(C)C)cn(C)c1=O [Example 185]

>  <LABEL_VALUE>
mid

$$$$
>  <MOLECULE>
CNC(=O)CN1CCC(c2ccc3[nH]c(-c4cc(C)c(=O)n(CCOC)c4)c(C(C)C)c3c2)CC1 [Example 160]

>  <LABEL_VALUE>
low

$$$$
>  <MOLECULE>
Cc1cc(-c2[nH]c3ccc(C4CCN(C5CCOCC5)CC4)cc3c2C(C)C)c(C)n(C)c1=O [Example 210]

>  <LABEL_VALUE>
mid

$$$$
>  <MOLECULE>
Cc1c(-c2[nH]c3ccc(C4CCN(CC(C)(C)O)CC4)cc3c2C(C)C)cn(C)c(=O)c1C#N [Example 322]

>  <LABEL_VALUE>
mid

$$$$

Please look at the following molecule next.
Textbook exercise: identify the category of the molecule given here, CCn1cc(-c2[nH]c3ccc(C4CCN(CC(=O)NC)CC4)cc3c2C(C)C)cc(C)c1=O [Example 132] , according to its measured value.
low
